B1: library; a variant is named by its letters at N, in order (parent)
chain: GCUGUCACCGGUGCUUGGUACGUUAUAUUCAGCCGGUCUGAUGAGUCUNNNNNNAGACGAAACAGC

Variants of: B1
test.method.notes: normalized RNA/DNA level with ligand (relative to sTRSVctl = 100) (log10 (% of sTRSVctl)); HEK293T overexpressing SLC46A1; ligand concentration (+) RNA-Seq: 6 mM; higher = less ribozyme self-cleavage, higher mRNA level
applied.conditions: with (6R,S)-folinic acid; ligand present: yes
For each record, write down the corresponding normalized RNA/DNA level with ligand (log10).
Give bare numbers.

GCUGUCACCGGUGCUUGGUACGUUAUAUUCAGCCGGUCUGAUGAGUCUUGGGCUAGACGAAACAGC: 2.04
GCUGUCACCGGUGCUUGGUACGUUAUAUUCAGCCGGUCUGAUGAGUCUGCACUAAGACGAAACAGC: 2.01
GCUGUCACCGGUGCUUGGUACGUUAUAUUCAGCCGGUCUGAUGAGUCUAACAUAAGACGAAACAGC: 1.99
GCUGUCACCGGUGCUUGGUACGUUAUAUUCAGCCGGUCUGAUGAGUCUUAGCCCAGACGAAACAGC: 2.03

Please supply normalized RNA/DNA level with ligand (log10) for each of the following items, keeping them in order.
1. GCUGUCACCGGUGCUUGGUACGUUAUAUUCAGCCGGUCUGAUGAGUCUAUCGUUAGACGAAACAGC
2. GCUGUCACCGGUGCUUGGUACGUUAUAUUCAGCCGGUCUGAUGAGUCUACCUGUAGACGAAACAGC
3. GCUGUCACCGGUGCUUGGUACGUUAUAUUCAGCCGGUCUGAUGAGUCUCCAAAUAGACGAAACAGC
4. GCUGUCACCGGUGCUUGGUACGUUAUAUUCAGCCGGUCUGAUGAGUCUCUAGCUAGACGAAACAGC

Return:
1. 2.01
2. 2
3. 2
4. 1.99
